test: yeast display, Sf9 membrane polyspecificity reagent, FACS + sequencing; frameworks hold sequencing errors
QUANTITY_MEASURED: polyreactivity (PSR sort gate)

Record excerpt, results attached:
QVQLVESGGGLVQAGGSLRLSCAGSGHIFPYNAMGWYRQGPGKEREFVAAISFRGGSRYYADSEKGRFTISRDNAKNTVYLQMNSLKPEDTAVYYCAKRSYPWGQGTQVTVSS    low polyreactivity
QVQLVESGGGLVQAGGSLRLSCAASGRIFVTNDMGWYRQAPGKETELVAAINWNGDSTNYADSVKGRFTISRDNAKNTVYLQLNSLKPEDTAVYYCAAGWFTRDTLAGYDYWGKGTQVTVSS    low polyreactivity
QVQLVESGGGLVQAGGSLRLSCAASGLTFAYYDMGWYRPAPGKERELVAAITSGGTTNYADSVKGRFTISRDNAKNTVYLQMNSQKPEDTADYYCAADRYYWGRYTLNYWGQGTQVTVSS    low polyreactivity
QVQLVESGGGLVQAGGSLRLSCAASGIIFVKNAMGWYRQAPGKERELVAAISRSGARTYYADSVKGRFTISRDNEKNTVYLQMNSLKPEDTAVYYCNVYTRDRGYDYWGHGTQVTVSS    high polyreactivity

Using known records, supply polyreactivity (PSR sort gate) for QVQLVESGGGLVQAGGSLRLSCAASGGIFRYYAMGWSRQAPGKEMELVAAITRGGRTSYADSVKGRFTISRDNAKNSVYLQMNSLKPEDTAVYYCNAKRPYQEHNSYGYWGQGTLVTVSS
high polyreactivity

---

assay: yeast display, Sf9 membrane polyspecificity reagent, FACS + sequencing; frameworks hold sequencing errors
QUANTITY_MEASURED: polyreactivity (PSR sort gate)

QVQLVESGGGLVQAGGSLRLSCAASGRIFDHYTLGWYRQAPGKERDFVAAISSSGGSTYYADSVKGRFTSSRDTAKNTVYLQLNSLKPEDTAVYDCAAVYHRLWGYDYWGQGPQVTVSS    high polyreactivity
QVQLVESRGGLVQARGSLRLSCAASGSTFVYYALGWYRTAPGTERELVAAITQRGGNTYYADSVKGRFTISRDNAKNTVYLQMNSLKPVDTAVYYCATKSYSQYFKFYYWGQGTQVTVSS    high polyreactivity
QVQLVESGGGLVQAGGSLRLSCAASGFTFGNSALGWYRLAAGKERELVAAISRSGGRTYYADSVKGSFTISRDNAKNTVYLQMNSLKPEVTAVYYCARLLLSPQYGYWGQGTQVTVSS    high polyreactivity

---

test: yeast display, Sf9 membrane polyspecificity reagent, FACS + sequencing; frameworks hold sequencing errors
QUANTITY_MEASURED: polyreactivity (PSR sort gate)

Record excerpt, results attached:
QVQLVESGGGLVQAGGSLRLSCAASGYILGRYAMGWYRQAPGKERELVAAITSGGSTYYADSVKGRFTISRDNAKNTVYLQMNSLKPEDTAVYYCNAFFATGVDYWGQGTQVTVSS    high polyreactivity
QVQLVESGGGLVQAGGSLRLSCAASGRTFAQYGMVWYRQAPGKEMELVAAISRRTGSTNYADSVKGRFTISRDNAKNTVYLQMNSLKPEDTAVYYCAARSYSYGVGYGYWGQGTQVTVSS    high polyreactivity
QVQLVESGGGLVQAGVSLRLSCAASGSTFGANAMGWYRQAPGKEREFVAAISGSGTTTYYADSVKGRFTISRDNAKNTVYLQMNSLKPEDTAVYYCAKTRKAHWLEYWGQGTQVTVSS    low polyreactivity
QVQLVESGGRLVQAGGTLRLSCADSGNTLHVYAMGWYRQAPGKERELVARITGGGRKYYADSVKGRFTISRDNAKNTVYLLMNSLNPEDTAVYYCATDYYGHKFLYDYWGQGTQVTVSS    low polyreactivity

Using known records, supply polyreactivity (PSR sort gate) for QVQLVESGGGLVQAGGSLRLSCAASGRTIIRNTMGWYRQAPGKERELVARISYGGGRTYYADSVKGRFTISRDNAKNTVYLQMNSLKPEDTAVYYCAKVTPPFWGGYWYNYWGQGTQVTVSS
high polyreactivity
